Data credit: BigSolDB 2.1

# assay setup: in methanol, 288.24 K
assay metric: solubility (mole fraction)
Please reply with the number alone, leaving off any unit.

## Task Identify solubility (mole fraction) associated with the molecule "CC(C)(Oc1ccc(CCNC(=O)c2ccc(Cl)cc2)cc1)C(=O)O"
## Result 0.00248

* * *

# assay setup: in isopentanol, 318.17 K
assay metric: solubility (mole fraction)
Please reply with the number alone, leaving off any unit.

## Task Identify solubility (mole fraction) associated with the compound "CC(C)(Oc1ccc(CCNC(=O)c2ccc(Cl)cc2)cc1)C(=O)O"
## Result 0.00672

* * *

# assay setup: in acetonitrile, 303.24 K
assay metric: solubility (mole fraction)
Please reply with the number alone, leaving off any unit.

## Task Identify solubility (mole fraction) associated with the compound "CC(C)(Oc1ccc(CCNC(=O)c2ccc(Cl)cc2)cc1)C(=O)O"
## Result 0.000355

* * *

# assay setup: in methyl propionate, 308.14 K
assay metric: solubility (mole fraction)

## Task Identify solubility (mole fraction) associated with the compound "CC(C)(Oc1ccc(CCNC(=O)c2ccc(Cl)cc2)cc1)C(=O)O"
## Result 0.0012

* * *

# assay setup: in n-propanol, 323.26 K
assay metric: solubility (mole fraction)
Please reply with the number alone, leaving off any unit.

## Task Identify solubility (mole fraction) associated with the compound "CC(C)(Oc1ccc(CCNC(=O)c2ccc(Cl)cc2)cc1)C(=O)O"
## Result 0.0104

* * *

# assay setup: in ethyl acetate, 303.17 K
assay metric: solubility (mole fraction)

## Task Identify solubility (mole fraction) associated with the molecule "CC(C)(Oc1ccc(CCNC(=O)c2ccc(Cl)cc2)cc1)C(=O)O"
## Result 0.0012

* * *

# assay setup: in sec-butanol, 323.16 K
assay metric: solubility (mole fraction)
Please reply with the number alone, leaving off any unit.

## Task Identify solubility (mole fraction) associated with the molecule "CC(C)(Oc1ccc(CCNC(=O)c2ccc(Cl)cc2)cc1)C(=O)O"
## Result 0.0106

* * *

# assay setup: in n-pentanol, 303.24 K
assay metric: solubility (mole fraction)
Please reply with the number alone, leaving off any unit.

## Task Identify solubility (mole fraction) associated with the compound "CC(C)(Oc1ccc(CCNC(=O)c2ccc(Cl)cc2)cc1)C(=O)O"
## Result 0.00497

* * *

# assay setup: in ethanol, 308.22 K
assay metric: solubility (mole fraction)
Please reply with the number alone, leaving off any unit.

## Task Identify solubility (mole fraction) associated with the compound "CC(C)(Oc1ccc(CCNC(=O)c2ccc(Cl)cc2)cc1)C(=O)O"
## Result 0.00538
